The reader will find reported inhibition at 0.1 µM values listed item by item below.
Molecular target: HIV-1 RT enzyme (WT) (Human immunodeficiency virus type 1 group M subtype B, UniProt P04585)
Experiment: ECL assay for inhibition of HIV reverse transcriptase
Format: biochemical
Conditions: 100 nM compound; wild-type RT
Measurement Name: inhibition at 0.1 µM (%)

>  <Molecule>
CCn1c(Cn2ccc(C(F)(F)F)c(Oc3cc(Cl)cc(C#N)c3)c2=O)n[nH]c1=O [Example 2-1]

>  <Measurement Name>
inhibition at 0.1 µM

>  <Measured Value>
75

$$$$
>  <Molecule>
Cn1c(Cn2cc(Br)c(C(F)(F)F)c(Oc3cc(Cl)cc(C#N)c3)c2=O)n[nH]c1=O [Example 7-1]

>  <Measurement Name>
inhibition at 0.1 µM

>  <Measured Value>
77

$$$$
>  <Molecule>
Cn1c(Cn2cc(Br)c(Cl)c(Oc3cc(Cl)cc(C#N)c3)c2=O)n[nH]c1=O [Example 6-1]

>  <Measurement Name>
inhibition at 0.1 µM

>  <Measured Value>
90

$$$$
>  <Molecule>
Cn1c(Cn2ccc(C(F)(F)F)c(Oc3cc(Cl)cc(C#N)c3)c2=O)n[nH]c1=O [Example 1-1]

>  <Measurement Name>
inhibition at 0.1 µM

>  <Measured Value>
85

$$$$
>  <Molecule>
Cn1c(Cn2ccc(Br)c(Oc3cc(Cl)cc(C#N)c3)c2=O)n[nH]c1=O [Example 4-1]

>  <Measurement Name>
inhibition at 0.1 µM

>  <Measured Value>
90

$$$$
>  <Molecule>
Cn1c(Cn2ccc(Cl)c(Oc3cc(Cl)cc(C#N)c3)c2=O)n[nH]c1=O [Example 3-1]

>  <Measurement Name>
inhibition at 0.1 µM

>  <Measured Value>
75

$$$$
>  <Molecule>
Cn1c(Cn2ccc(C(C)(F)F)c(Oc3cc(Cl)cc(C#N)c3)c2=O)n[nH]c1=O [Example 5-1]

>  <Measurement Name>
inhibition at 0.1 µM

>  <Measured Value>
75

$$$$
>  <Molecule>
Cn1c(Cn2ccc(C(F)(F)F)c(Oc3cc(C#N)cc(C(F)F)c3)c2=O)n[nH]c1=O [Example 8-1]

>  <Measurement Name>
inhibition at 0.1 µM

>  <Measured Value>
75

$$$$
